Entry source: ChEMBL document CHEMBL1121949

Parameter pKi: see the listing below.
Target: Adenylate kinase 2, mitochondrial (Rattus norvegicus, UniProt P29410)
Assay: Inhibitory activity against rat adenylate kinase II was determined in the presence of AMP, non competitive inhibition
pKi: −log10 of the molar value.

COMPOUND: Nc1ncnc2c1ncn2[C@@H]1O[C@H](CO)[C@@H](O)[C@H]1O [ADENOSINE]
MEASUREMENT TARGET: Adenylate kinase 2, mitochondrial (Rattus norvegicus, UniProt P29410)
pKi: 1.04

COMPOUND: CCSc1nc2c(N)ncnc2n1C1O[C@H](COP(=O)(O)OP(=O)(O)OP(=O)(O)OP(=O)(O)OP(=O)(O)O[C@H](C)[C@H]2OC(n3cnc4c(N)ncnc43)[C@H](O)[C@@H]2O)[C@@H](O)[C@H]1O (some centres not stated)
MEASUREMENT TARGET: Adenylate kinase 2, mitochondrial (Rattus norvegicus, UniProt P29410)
pKi: 5.55
